Molecular target: T1, human tissue factor (TF) on cells (human, UniProt P13726 33-295)
T1 construct: also called human TF; the antigen
Assay: cell ELISA on fixed J82 cells expressing TF
Assay Endpoint: binding result

humanized H chain version j / humanized L chain version b antibody (antibody, V domains shown, Expressed from N5KG4P (human IgG4-type); also called j-b) VH: QVQLLESGAVLARPGTSVKISCKASGFNIKDYYMHWVKQRPGQGLEWIGGNDPANGHSMYDPKFQGRVTFTADTSANTAYMELRSLRSADTAVYYCARDSGYAMDYWGQGTLVTVSS VL: DIQMTQSPSSLSASVGDRVTITCKASQDIKSFLSWYQQKPGKAPKLLIYYATSLADGVPSRFSGSGSGTDYTLTISSLQPEDFATYYCLQHGESPYTFGGGTKVEIK | binds
humanized H chain version b / humanized L chain version c antibody (antibody, V domains shown, Human IgG4-type (N5KG4P series); also called b-c) VH: QVQLLESGAVLARPGTSVKISCKASGFNIKDYYMHWVKQRPGQGLEWIGGNDPANGHSMYDPKFQGRVTITADTSTNTAYMELSSLRSEDTAIYYCARDSGYAMDYWGQGTLVTVSS VL: DIQMTQSPSSLSASVGDRVTITCKASQDIKSFLSWYQQKPGKAPKLLIYYATSLADGVPSRFSGSGSGTDYTLTISSLQPEDIATYYCLQHGESPYTFGGGTKVEIK | binds
humanized H chain version j / chimeric L chain antibody (antibody, V domains shown, Expressed from N5KG4P (human IgG4-type)) VH: QVQLLESGAVLARPGTSVKISCKASGFNIKDYYMHWVKQRPGQGLEWIGGNDPANGHSMYDPKFQGRVTFTADTSANTAYMELRSLRSADTAVYYCARDSGYAMDYWGQGTLVTVSS VL: DIKMTQSPSSMYASLGERVTITCKASQDIKSFLSWYQQKPWKSPKTLIYYATSLADGVPSRFSGSGSGQDYSLTINNLESDDTATYYCLQHGESPYTFGGGTKLEIK | binds
humanized H chain version d / humanized L chain version b antibody (antibody, V domains shown, Expressed from N5KG4P (human IgG4-type); also called d-b) VH: QVQLLESGAVLARPGTSVKISCKASGFNIKDYYMHWVKQRPGQGLEWIGGNDPANGHSMYDPKFQGRVTITADESTSTAYMELSSLRSEDSAVYFCARDSGYAMDYWGQGTLVTVSS VL: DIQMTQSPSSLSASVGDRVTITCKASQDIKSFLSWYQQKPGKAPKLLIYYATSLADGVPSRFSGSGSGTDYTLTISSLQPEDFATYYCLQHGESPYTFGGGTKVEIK | binds

Query block: Return reported binding result; argument: chimeric H chain / humanized L chain version b2 antibody (antibody, V domains shown, Expressed from N5KG4P (human IgG4-type); also called ch-b2) VH: EVQLQQSGTNLVRPGALVKLSCKGSGFNIKDYYMHWVKQRPEQGLEWIGGNDPANGHSMYDPKFQGKASITADTSSNTAYLQLSSLTSEDTAVYFCARDSGYAMDYWGQGTSVTVSS VL: DIQMTQSPSSLSASVGDRVTITCKASQDIKSFLSWYQQKPEKAPKSLIYYATSLADGVPSRFSGSGSGTDYTLTISSLQPEDFATYYCLQHGESPYTFGGGTKVEIK
Result block: binds
